PROTOCOL SUMMARY: Oral bioavailability in rat at 2 mg/kg
Format: ADME, organism-based
STATED CONDITIONS: in vivo
REPORTED METRIC: bioavailability (%)
A number alone suffices; assume %.

For "Cn1nnc(-c2ccc(-c3ccc(N4C[C@H](CO)OC4=O)cc3F)cn2)n1" , what is its reported bioavailability?
91

###

TARGET OR TEST SYSTEM: Amine oxidase [flavin-containing] B (Homo sapiens)
Sequence (P27338 whole entry): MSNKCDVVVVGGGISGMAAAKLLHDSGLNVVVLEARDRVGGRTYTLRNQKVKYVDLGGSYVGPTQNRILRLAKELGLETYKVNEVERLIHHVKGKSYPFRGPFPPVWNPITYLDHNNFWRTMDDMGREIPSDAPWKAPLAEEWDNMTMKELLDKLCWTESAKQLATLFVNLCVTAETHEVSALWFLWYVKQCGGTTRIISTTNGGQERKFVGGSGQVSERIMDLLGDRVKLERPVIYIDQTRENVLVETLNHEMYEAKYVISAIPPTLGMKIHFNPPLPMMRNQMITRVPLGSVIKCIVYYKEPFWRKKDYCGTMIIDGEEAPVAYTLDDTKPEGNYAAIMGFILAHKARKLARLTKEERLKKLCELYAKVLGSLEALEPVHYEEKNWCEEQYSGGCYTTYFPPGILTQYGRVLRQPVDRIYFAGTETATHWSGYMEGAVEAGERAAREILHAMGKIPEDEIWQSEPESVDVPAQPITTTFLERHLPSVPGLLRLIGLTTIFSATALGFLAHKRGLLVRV
PROTOCOL SUMMARY: Inhibition of MAO-B (unknown origin)
REPORTED METRIC: IC50 (µM)
Expressed in µM, but write only the number.

# query: IC50 of entry O=C1C=CN(c2c(F)cc(N3C[C@H](CNc4ccon4)OC3=O)c(F)c2F)CC1 [CONTEZOLID]
30.1

###

Test system: Staphylococcus aureus
PROTOCOL SUMMARY: Antibacterial activity against Staphylococcus aureus HG001 assessed as reduction in bacterial cell growth incubated for 18 hrs by two-fold serial dilution method
Assay type: functional
Recorded measurements of MIC, one per entry
Don't forget the unit after the value.

Past entries and their recorded results:
* CC(=O)NC[C@H]1CN(c2ccc(N3CCN(C(=O)CN(CCCNC(=O)c4cccc(O)c4O)C(=O)c4cccc(O)c4O)CC3)c(F)c2)C(=O)O1 | 64 µM
* CC(=O)NC[C@H]1CN(c2ccc(N3CCN(C(=O)OCn4cc(CNC(=O)C(CCCCNC(=O)c5cccc(O)c5O)NC(=O)c5cccc(O)c5O)nn4)CC3)c(F)c2)C(=O)O1 (stereo not given in full) | 64 µM
* CC(=O)NC[C@H]1CN(c2ccc(N3CCN(C(=O)COCCOCCn4cc(CNC(=O)C(CNC(=O)C(CNC(=O)CNC(=O)c5cccc(O)c5O)NC(=O)c5cccc(O)c5O)NC(=O)c5cccc(O)c5O)nn4)CC3)c(F)c2)C(=O)O1 (stereo not given in full) | 64 µM
* CC(=O)NC[C@H]1CN(c2ccc(N3CCN(C(=O)OCn4cc(CNC(=O)C(CNC(=O)C(CNC(=O)CNC(=O)c5cccc(O)c5O)NC(=O)c5cccc(O)c5O)NC(=O)c5cccc(O)c5O)nn4)CC3)c(F)c2)C(=O)O1 (stereo not given in full) | 16 µM

Switching to the query record.
Returns the measured MIC for the input compound. Input: CC(=O)NC[C@H]1CN(c2ccc(N3CCN(C(=O)COCCOCCn4cc(CNC(=O)C(CCCCNC(=O)c5cccc(O)c5O)NC(=O)c5cccc(O)c5O)nn4)CC3)c(F)c2)C(=O)O1 (stereo not given in full)
64 µM

Origin of values: ChEMBL document CHEMBL5390223
